Test: p53 small molecule agonists, cell-based qHTS assay with rat liver microsomes (AID 1963578)
Conditions: HCT-116 p53RE-bla, beta-lactamase ratio, 16 h; series mostly up to 66 µM
Records with an inconclusive call do not appear. Active and inactive are the calls of the source. Calls come from the whole dose curve.
measure: activation

>>> result("CC(=O)OCCc1ccccc1")
"inactive"
>>> result("CN(C)CCCNCCCN")
"inactive"
>>> result("CCCCC/C=C/C=C/C=O")
"inactive"
>>> result("Cc1occc1S")
"inactive"
>>> result("COc1cc(C)c(Cc2cnc(N)nc2N)cc1OC")
"inactive"
>>> result("CC(C)(C)C(=O)C(Oc1ccc(Cl)cc1)n1ccnc1 (stereo not drawn)")
"inactive"
>>> result("O=[Si]=O")
"inactive"
>>> result("COc1cc(/C=C/C(=O)O[C@H]2CC[C@]34C[C@]35CC[C@]3(C)[C@@H]([C@H](C)CCC=C(C)C)CC[C@@]3(C)[C@@H]5CC[C@H]4C2(C)C)ccc1O")
"inactive"
>>> result("COC(/C=C(\\C)CCC=C(C)C)OC")
"inactive"
>>> result("CC(C)(c1cc(Br)c(OCC(Br)CBr)c(Br)c1)c1cc(Br)c(OCC(Br)CBr)c(Br)c1 (stereo not drawn)")
"inactive"
>>> result("CC(C)(C)c1ccc(O)c(C(C)(C)C)c1")
"inactive"
>>> result("[O]=[Zr]")
"inactive"
>>> result("C=CCOCC(CC)(CO)COCC=C")
"inactive"

###

Test: cAMP Responsive Elements (CRE) small molecule agonists, cell-based qHTS assay (AID 1963590)
Conditions: CRE-bla HEK293T, beta-lactamase FRET ratio, 3 h; series mostly up to 92.4 µM
Results filed as inconclusive are left out. The source made the active and inactive calls. The call rests on the fitted dose curve.
measure: activation

>>> result("Cc1cccc(S(=O)(=O)O)c1C")
"inactive"
>>> result("CCOC(=O)c1ccccc1C")
"inactive"
>>> result("CCC(=O)OC(C)(C)C1CC=C(C)CC1 (stereo not given)")
"inactive"
>>> result("CCCC(C)CCC(C)=O (stereo not given)")
"inactive"
>>> result("CCNc1cc(O)ccc1C")
"inactive"
>>> result("Cc1ncc(CSSCc2cnc(C)c(O)c2CO)c(CO)c1O")
"inactive"
>>> result("O=C1CCCc2ccccc21")
"inactive"
>>> result("Fc1ccccc1-c1ccccc1")
"inactive"
>>> result("CCCCC(CC)COCCC#N (stereo not given)")
"inactive"
>>> result("C=CCOCC(CO)(COCC=C)COCC=C")
"inactive"
>>> result("COC(=O)c1ccccc1C(=O)c1ccc(OCCN2CCCCC2)cc1")
"inactive"
>>> result("COc1ccc(C(=O)NCc2ccc(OCCN(C)C)cc2)cc1OC")
"inactive"
>>> result("C#CC(O)CCC (stereo not given)")
"inactive"
>>> result("Cc1ccc(N(C)C)cc1")
"inactive"
>>> result("CCC(COC(=O)CCS)(COC(=O)CCS)COC(=O)CCS")
"inactive"

###

Test: Nuclear factor erythroid 2-related factor 2/antioxidant responsive element (Nrf2/ARE) small molecule agonists: luciferase reporter gene qHTS assay in human keratinocytes (AID 1919969); note: nearly all actives have a fitted effect of over 35% in size
Details: KeratinoSens HaCaT ARE-luciferase, luminescence, 24 h; series mostly up to 92.4 µM
Inconclusive results are not listed. Activity calls are given as the source filed them. The call rests on the fitted dose curve.
Outcomes: 1 for active, -1 for inactive

>>> class("CCO[Si](OCC)(OCC)c1ccccc1")
-1
>>> class("CCCCCCCCCCCCOCCO")
1
>>> class("O=C(O)CC(=O)O")
-1
>>> class("CCCCCCN")
-1
>>> class("O=C1CCCCCCCCCCCCCCCO1")
-1
>>> class("O=C1CC(c2ccc(Cl)cc2)CC(=O)N1")
-1
>>> class("CCCCOC(=O)CCS")
-1
>>> class("CC(=C(CCOC(=O)C(C)C)SSC(CCOC(=O)C(C)C)=C(C)N(C=O)Cc1cnc(C)nc1N)N(C=O)Cc1cnc(C)nc1N")
-1
>>> class("NS(=O)(=O)c1ccc(NC(=O)CCC(=O)O)cc1")
-1
>>> class("O=C1Cc2cc(Cl)ccc2N1")
-1
>>> class("CCCc1c2oc(C(=O)O)cc(=O)c2cc2c(=O)cc(C(=O)O)n(CC)c12")
-1
>>> class("CCCCCCCCCCCCI")
-1
>>> class("O=C(c1ccccc1)C1(O)CCCCC1")
-1
>>> class("COC(=O)c1cc(Cl)c(NC(C)=O)cc1OC")
-1
